Where do the numbers come from? From PubChem BioAssay (NCI).

Tested on: EKVX NSCLC
protocolDetails: NCI-60 one-dose screen, 48 h (100 = growth as untreated, 0 = no growth, -100 = all killed)
conditionLabel: 10 µM unless noted
The panel holds about 83,000 compounds, 20% with a hit somewhere; the sample as a whole holds those more often.
Measured growth, listed per entry for reference.

| compound | studySystem | unitLabel | growth |
| --- | --- | --- | --- |
| C/C(=N\N=C1/SCC(=O)N1c1ccccc1)c1ccco1 | EKVX NSCLC | % | 105 |
| O=C(Nc1ccc(F)cc1)Nc1ccc(Cl)c([N+](=O)[O-])c1 | EKVX NSCLC | % | 15.8 |
| CCOc1ccc(NC2=C(Cl)C(=O)c3ccccc3C2=O)cc1 | EKVX NSCLC | % | 87.2 |
| CCOC(=O)c1[nH]c(-c2ccc(Cl)cc2)cc1-c1cccnc1 | EKVX NSCLC | % | 24.3 |
| CCOC(=O)C(C)(CSSCC(C)(NC(=O)c1ccc2ccccc2c1)C(=O)OCC)NC(=O)c1ccc2ccccc2c1 (stereo not drawn) | EKVX NSCLC | % | 90.3 |
| O=C(C[n+]1ccccc1Cl)c1ccc2c(c1)CCCC2 | EKVX NSCLC | % | 78.9 |
| CCCCN(CCCC)c1ccc(C(=N)c2ccc(N(C)C)cc2)cc1 | EKVX NSCLC | % | -11.9 |
| COc1ccc(-c2[nH]c3ccccc3c2/C=C(\C#N)S(=O)(=O)c2ccccc2)cc1 | EKVX NSCLC | % | 14.1 |
| CCOC(=O)c1noc2c1CCc1c-2cn(Cc2ccc(OC)cc2)c1-c1cc(OC)c(OC)c(OC)c1 | EKVX NSCLC | % | 48.6 |
| NN=C(c1ccc(Cl)cc1)c1ccc(Cl)cc1 | EKVX NSCLC | % | 108 |
| O=C(c1cc(-c2ccc(Cl)cc2)nc2ccccc12)N1N=C(c2ccccc2)CC1c1cc(-c2ccccc2)nn1-c1ccccc1 (stereo not drawn) | EKVX NSCLC | % | 81.1 |
| Nc1ccc(S(=O)(=O)Nc2cc(I)cc(I)c2)cc1 | EKVX NSCLC | % | 124 |
| CC(=O)c1cc2c(c(O)c1C)C(=O)C(=O)c1c(O)cccc1-2 | EKVX NSCLC | % | -42.3 |
| CCC(CC(C)C)Nc1ccc(NC(CC)CC(C)C)cc1 (stereo not drawn) | EKVX NSCLC | % | 81.4 |
| CC[C@H]1[C@@H]2C=C[C@@H]3[C@H]4C/C=C\C(=O)NCCC[C@@H]5NC(=O)/C(=C(O)/C=C/[C@@H]4C[C@@H]3[C@H]2C[C@H]1C)C5=O | EKVX NSCLC | % | 15.3 |
| O=C(Nc1cccc(-n2ccc3c(NC(=O)c4ccccc4)nccc32)c1)Nc1ccc(Cl)c(C(F)(F)F)c1 | EKVX NSCLC | % | 32.8 |
| CC(C)(C)C(=O)/C=c1/[nH]c(=O)/c(=C/c2ccccc2O)s1 | EKVX NSCLC | % | 61.1 |
| CC1(C)N=C(N)N=C(N)N1c1cccc(CCCCc2ccccc2)c1 | EKVX NSCLC | % | 7.11 |
| Cc1cc(O[C@@H]2O[C@@H](C)[C@H](O)[C@@H](O)[C@H]2O)c2c3c(c(O[C@@H]4O[C@@H](C)[C@H](O)[C@@H](O)[C@H]4O)cc2c1)C(=O)c1c(O)cccc1C3=O | EKVX NSCLC | % | 76.7 |
| COc1cc(NC(=O)C#Cc2ccccc2)c(OC)cc1Cl | EKVX NSCLC | % | 62.7 |
| Nc1ncnc2c1c(-c1ccc(Oc3ccccc3)cc1)nn2C[C@@H]1SSC[C@H]1O | EKVX NSCLC | % | 33.2 |
| COc1ccc2c(c1)OC(N)=C(C#N)C2c1ccc(F)c(F)c1 (stereo not drawn) | EKVX NSCLC | % | 49.2 |
| COc1ccc(-c2nn(-c3ccc(NC(=O)Nc4ccc(Cl)c(Cl)c4)cc3)cc2-c2ccncc2)cc1Cl | EKVX NSCLC | % | 21.5 |
| Cc1c(C(C)(C)C)cc(C(C)(C)C)c2c1CN(C)CO2 | EKVX NSCLC | % | 105 |
| COc1cc([C@@H]2c3cc4c(cc3C(OC3O[C@@H]5COC(C)O[C@H]5[C@H](O)[C@H]3O)C3COC(=O)[C@@H]32)OCO4)cc(OC)c1O (stereo partly drawn) | EKVX NSCLC | % | 57.8 |
| C[C@@H]1CC2C3C[C@H](F)C4=CC(=O)C=C[C@]4(C)[C@@]3(F)[C@@H](O)C[C@]2(C)[C@@]1(O)C(=O)CO (stereo partly drawn) | EKVX NSCLC | % | 64.9 |
| COc1ccc(C2=NN(C(=O)COc3ccc(Cl)cc3)C(O)(c3cc(F)c(Cl)cc3Cl)C2)cc1OC (stereo not drawn) | EKVX NSCLC | % | 61.6 |
| CN1CCN(Cn2nc(-c3cc(F)c(Cl)cc3Cl)n(/N=C/c3ccc(N(C)C)cc3)c2=S)CC1 | EKVX NSCLC | % | 87.1 |
| COc1cc(Br)c(-c2nc(-c3ccccc3)c(-c3ccccc3)n2Cc2ccccc2)cc1OC | EKVX NSCLC | % | 47.9 |
| COc1ccc2c(c1)nnc1c3cccnc3[nH]c21 | EKVX NSCLC | % | 34.2 |
| CCCCNC(=O)Oc1ccc(/C(=C(/CC)Cc2ccccc2)c2ccc(OCCCN(C)C)cc2)cc1 | EKVX NSCLC | % | 67.5 |
| C=CCn1c(SCC(=O)Nc2ccc(C(=O)/C=C/c3cc(OC)c(OC)c(OC)c3)cc2)nnc1-c1ccc(OC)cc1 | EKVX NSCLC | % | 14.1 |
| CCN(CC)CCC(C(=O)O)(c1ccccc1)c1ccccc1 | EKVX NSCLC | % | 96.1 |
| Nc1nccc2c1ccn2-c1cccc(NC(=O)c2ccc(N3CCOCC3)c(C(F)(F)F)c2)c1 | EKVX NSCLC | % | 44.4 |
| S=c1ssnc1-c1ccccn1 | EKVX NSCLC | % | 65.2 |
| O=C1c2ccccc2OC=C(c2ccccc2)N1CCCCN1CCCCC1 | EKVX NSCLC | % | 39.5 |
| Cc1ccc(-c2nc3c(N=Nc4ccc(S(N)(=O)=O)cc4)c(N)nn3c(N)c2C#N)cc1 | EKVX NSCLC | % | 69.8 |
| N#Cc1c(N)nc2c(c1N)C(c1ccc(Cl)cc1)C1=C(CCCC1=O)N2c1sc2c(c1C#N)CCCC2 (stereo not drawn) | EKVX NSCLC | % | 93.7 |
